Listed here: items and their measured Normal melting temperature.
- conditions-used: Crystal
± gives the expanded uncertainty stated by the source.
Write the figure, then the unit, nothing else.

Sample records with Normal melting temperature:
* CC(=O)Nc1ccccc1C [o-acetotoluide] | 109.6 ± 1 °C
* Nc1cccc(O)c1 [3-hydroxybenzenamine] | 123.7 ± 1 °C
* Nc1ccccc1O [2-hydroxybenzenamine] | 174.5 ± 1 °C
* COc1cc(OC)c(C(=O)O)cc1OC [2,4,5-trimethoxybenzoic acid] | 144.8 ± 1 °C
* COc1cc(C(=O)O)cc(OC)c1OC [3,4,5-trimethoxybenzoic acid] | 171.4 ± 1 °C

Q: Name the reported Normal melting temperature value associated with the molecule CC(=O)Nc1ccc(C)cc1 [1-acetamido-4-methylbenzene]
A: 151 ± 1 °C
